Where do these numbers come from? They come from ChEMBL document CHEMBL1153320.

biological target: Sodium/glucose cotransporter 2 (Homo sapiens); test: Inhibition of human kidney SGLT2 assessed as renal glucose reabsorption
In this section, each of the compounds is paired with its reported EC50.
Provide only the numeric value, understood in nM.

structure notation: COc1ccc(Cc2ccccc2O[C@@H]2O[C@H](CO)[C@@H](O)[C@H](O)[C@H]2O)cc1
endpoint name: EC50
measured: 9

structure notation: CCNC(=O)c1c(O)c(Cc2ccc(OC)cc2)cc([C@@H]2O[C@H](CO)[C@@H](O)[C@H](O)[C@H]2O)c1O
endpoint name: EC50
measured: 500

Q. Please state recorded EC50 (tested on Sodium/glucose cotransporter 2 (Homo sapiens)) of Cc1c(Cc2ccc(OC(C)C)cc2)c(O[C@@H]2O[C@H](CO)[C@@H](O)[C@H](O)[C@H]2O)nn1C(C)C
A. 14

----------
Target: Sodium/glucose cotransporter 2 (Homo sapiens)
Sequence (P31639 whole entry): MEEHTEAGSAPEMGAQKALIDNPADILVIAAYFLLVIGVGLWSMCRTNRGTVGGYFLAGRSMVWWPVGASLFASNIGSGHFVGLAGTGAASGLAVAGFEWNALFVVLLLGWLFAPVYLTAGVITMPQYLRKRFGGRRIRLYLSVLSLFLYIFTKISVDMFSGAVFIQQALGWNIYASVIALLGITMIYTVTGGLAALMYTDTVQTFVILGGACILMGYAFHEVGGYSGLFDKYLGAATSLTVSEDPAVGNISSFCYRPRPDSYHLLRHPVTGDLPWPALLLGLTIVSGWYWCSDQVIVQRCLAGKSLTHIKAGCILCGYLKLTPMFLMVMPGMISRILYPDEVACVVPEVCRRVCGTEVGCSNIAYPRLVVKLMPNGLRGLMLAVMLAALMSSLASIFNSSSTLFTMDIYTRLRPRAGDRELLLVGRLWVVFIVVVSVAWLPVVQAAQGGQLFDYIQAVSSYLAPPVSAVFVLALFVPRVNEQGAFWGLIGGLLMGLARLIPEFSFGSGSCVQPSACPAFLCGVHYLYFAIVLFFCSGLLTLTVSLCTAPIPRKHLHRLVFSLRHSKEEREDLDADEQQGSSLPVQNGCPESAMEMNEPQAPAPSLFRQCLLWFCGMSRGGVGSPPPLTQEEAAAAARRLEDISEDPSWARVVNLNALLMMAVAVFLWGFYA
endpoint name: IC50 (nM)
Provide only the numeric value, understood in nM.

Q. Given the entry Cc1cc(O)c(C(=O)CCc2ccc3occc3c2)c(O[C@@H]2O[C@H](CO)[C@@H](O)[C@H](O)[C@H]2O)c1 , report its measured IC50.
A. 50

----------
assay: Clearance in normal human at 10 to 100 mg/day, po administered as single ascending dose; settings: in vivo
endpoint name: CL/F (mL/min)
Provide only the numeric value, understood in mL/min.

Q. Given the entry CCOc1ccc(Cc2cc([C@@H]3O[C@H](CO)[C@@H](O)[C@H](O)[C@H]3O)ccc2Cl)cc1 , report its measured CL/F.
A. 6

----------
experiment: Half life in normal human at 10 to 100 mg/day, po administered as single ascending dose; settings: in vivo
endpoint name: half-life (h)
Provide only the numeric value, understood in h.

Q. Given the entry CCOc1ccc(Cc2cc([C@@H]3O[C@H](CO)[C@@H](O)[C@H](O)[C@H]3O)ccc2Cl)cc1 , report its measured half-life.
A. 15
